Test system: MDA-MB-231
Experiment: Cytotoxicity against human MDA-MB-231 cells assessed as inhibition of cell growth incubated for 72 hrs by CCK-8 assay
Assay type: functional, cell-based
Conditions: MDA-MB-231, 72 h

MOLECULE	CENSORING OPERATOR	IC50 / µM
C=C(C)[C@@H]1CC[C@]2(C(=O)O)CC[C@]3(C)[C@H](CC[C@@H]4[C@@]5(C)CC[C@H](OC(=O)N6CCCCC6)C(C)(C)[C@@H]5CC[C@]43C)[C@@H]12	>	100
C=C(C)[C@@H]1CC[C@]2(C(=O)O)CC[C@]3(C)[C@H](CC[C@@H]4[C@@]5(C)CC[C@H](O)C(C)(C)[C@@H]5CC[C@]43C)[C@@H]12 [BETULINIC ACID]	=	19.1
Nc1ccn([C@@H]2O[C@H](CO)[C@@H](O)C2(F)F)c(=O)n1 [GEMCITABINE]	=	2.22
C=C(C)[C@@H]1CC[C@]2(C(=O)O)CC[C@]3(C)[C@H](CC[C@@H]4[C@@]5(C)CC[C@H](OC(=O)NC(C)C)C(C)(C)[C@@H]5CC[C@]43C)[C@@H]12	>	100

The measured values listed here are drawn from ChEMBL document CHEMBL5143600.
